SYSTEM: N-NLP7(1–581) (GST-N-NLP7-8xHIS) (Arabidopsis thaliana)
MEASUREMENT_TYPE: Kd (µM)

[[record]]
compound = "O=[N+]([O-])O [nitrate]"
measurement_type = "Kd"
obs_value = 86


====

SYSTEM: NLP7 (GST-NLP7-8xHIS) (Arabidopsis thaliana, UniProt Q84TH9)
Sequence (Q84TH9 whole entry): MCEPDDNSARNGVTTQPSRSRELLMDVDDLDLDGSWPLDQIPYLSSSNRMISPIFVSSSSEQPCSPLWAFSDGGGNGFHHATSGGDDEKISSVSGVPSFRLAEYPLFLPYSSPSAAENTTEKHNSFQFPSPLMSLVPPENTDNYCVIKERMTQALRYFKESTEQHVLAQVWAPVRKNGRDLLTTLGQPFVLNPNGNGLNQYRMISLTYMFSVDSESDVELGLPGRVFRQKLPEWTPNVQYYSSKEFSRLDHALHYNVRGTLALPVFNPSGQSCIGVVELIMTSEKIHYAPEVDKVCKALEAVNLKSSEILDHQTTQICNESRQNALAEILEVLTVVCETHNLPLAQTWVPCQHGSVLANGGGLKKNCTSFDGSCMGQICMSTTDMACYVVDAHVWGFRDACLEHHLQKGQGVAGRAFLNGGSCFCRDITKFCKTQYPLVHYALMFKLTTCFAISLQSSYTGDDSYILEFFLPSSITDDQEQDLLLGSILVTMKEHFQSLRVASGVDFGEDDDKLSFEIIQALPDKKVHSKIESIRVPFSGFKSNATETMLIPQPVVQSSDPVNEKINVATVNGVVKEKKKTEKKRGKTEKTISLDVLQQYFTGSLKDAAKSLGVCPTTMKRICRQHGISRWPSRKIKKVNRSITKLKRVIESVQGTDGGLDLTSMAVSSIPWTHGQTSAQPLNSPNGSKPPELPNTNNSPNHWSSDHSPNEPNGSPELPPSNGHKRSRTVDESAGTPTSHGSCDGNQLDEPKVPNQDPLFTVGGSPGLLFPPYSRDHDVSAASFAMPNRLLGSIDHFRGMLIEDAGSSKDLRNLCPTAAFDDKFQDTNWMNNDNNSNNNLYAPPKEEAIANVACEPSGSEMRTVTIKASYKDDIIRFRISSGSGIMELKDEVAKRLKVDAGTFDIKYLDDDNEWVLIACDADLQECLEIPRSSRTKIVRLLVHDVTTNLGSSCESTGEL
pKd: −log10 of the molar value.
MEASUREMENT_TYPE: pKd

[[record]]
compound = "O=[N+]([O-])O [nitrate]"
system = "NLP7 (GST-NLP7-8xHIS) (Arabidopsis thaliana, UniProt Q84TH9)"
measurement_type = "pKd"
obs_value = 4.28

